The reported numbers originate from patent US20250114345A1.

# target_under_test: p300 (Homo sapiens, UniProt Q09472)
# Construct: host or cells: A549 P300 HiBit cells
# Sequence (Q09472 whole entry): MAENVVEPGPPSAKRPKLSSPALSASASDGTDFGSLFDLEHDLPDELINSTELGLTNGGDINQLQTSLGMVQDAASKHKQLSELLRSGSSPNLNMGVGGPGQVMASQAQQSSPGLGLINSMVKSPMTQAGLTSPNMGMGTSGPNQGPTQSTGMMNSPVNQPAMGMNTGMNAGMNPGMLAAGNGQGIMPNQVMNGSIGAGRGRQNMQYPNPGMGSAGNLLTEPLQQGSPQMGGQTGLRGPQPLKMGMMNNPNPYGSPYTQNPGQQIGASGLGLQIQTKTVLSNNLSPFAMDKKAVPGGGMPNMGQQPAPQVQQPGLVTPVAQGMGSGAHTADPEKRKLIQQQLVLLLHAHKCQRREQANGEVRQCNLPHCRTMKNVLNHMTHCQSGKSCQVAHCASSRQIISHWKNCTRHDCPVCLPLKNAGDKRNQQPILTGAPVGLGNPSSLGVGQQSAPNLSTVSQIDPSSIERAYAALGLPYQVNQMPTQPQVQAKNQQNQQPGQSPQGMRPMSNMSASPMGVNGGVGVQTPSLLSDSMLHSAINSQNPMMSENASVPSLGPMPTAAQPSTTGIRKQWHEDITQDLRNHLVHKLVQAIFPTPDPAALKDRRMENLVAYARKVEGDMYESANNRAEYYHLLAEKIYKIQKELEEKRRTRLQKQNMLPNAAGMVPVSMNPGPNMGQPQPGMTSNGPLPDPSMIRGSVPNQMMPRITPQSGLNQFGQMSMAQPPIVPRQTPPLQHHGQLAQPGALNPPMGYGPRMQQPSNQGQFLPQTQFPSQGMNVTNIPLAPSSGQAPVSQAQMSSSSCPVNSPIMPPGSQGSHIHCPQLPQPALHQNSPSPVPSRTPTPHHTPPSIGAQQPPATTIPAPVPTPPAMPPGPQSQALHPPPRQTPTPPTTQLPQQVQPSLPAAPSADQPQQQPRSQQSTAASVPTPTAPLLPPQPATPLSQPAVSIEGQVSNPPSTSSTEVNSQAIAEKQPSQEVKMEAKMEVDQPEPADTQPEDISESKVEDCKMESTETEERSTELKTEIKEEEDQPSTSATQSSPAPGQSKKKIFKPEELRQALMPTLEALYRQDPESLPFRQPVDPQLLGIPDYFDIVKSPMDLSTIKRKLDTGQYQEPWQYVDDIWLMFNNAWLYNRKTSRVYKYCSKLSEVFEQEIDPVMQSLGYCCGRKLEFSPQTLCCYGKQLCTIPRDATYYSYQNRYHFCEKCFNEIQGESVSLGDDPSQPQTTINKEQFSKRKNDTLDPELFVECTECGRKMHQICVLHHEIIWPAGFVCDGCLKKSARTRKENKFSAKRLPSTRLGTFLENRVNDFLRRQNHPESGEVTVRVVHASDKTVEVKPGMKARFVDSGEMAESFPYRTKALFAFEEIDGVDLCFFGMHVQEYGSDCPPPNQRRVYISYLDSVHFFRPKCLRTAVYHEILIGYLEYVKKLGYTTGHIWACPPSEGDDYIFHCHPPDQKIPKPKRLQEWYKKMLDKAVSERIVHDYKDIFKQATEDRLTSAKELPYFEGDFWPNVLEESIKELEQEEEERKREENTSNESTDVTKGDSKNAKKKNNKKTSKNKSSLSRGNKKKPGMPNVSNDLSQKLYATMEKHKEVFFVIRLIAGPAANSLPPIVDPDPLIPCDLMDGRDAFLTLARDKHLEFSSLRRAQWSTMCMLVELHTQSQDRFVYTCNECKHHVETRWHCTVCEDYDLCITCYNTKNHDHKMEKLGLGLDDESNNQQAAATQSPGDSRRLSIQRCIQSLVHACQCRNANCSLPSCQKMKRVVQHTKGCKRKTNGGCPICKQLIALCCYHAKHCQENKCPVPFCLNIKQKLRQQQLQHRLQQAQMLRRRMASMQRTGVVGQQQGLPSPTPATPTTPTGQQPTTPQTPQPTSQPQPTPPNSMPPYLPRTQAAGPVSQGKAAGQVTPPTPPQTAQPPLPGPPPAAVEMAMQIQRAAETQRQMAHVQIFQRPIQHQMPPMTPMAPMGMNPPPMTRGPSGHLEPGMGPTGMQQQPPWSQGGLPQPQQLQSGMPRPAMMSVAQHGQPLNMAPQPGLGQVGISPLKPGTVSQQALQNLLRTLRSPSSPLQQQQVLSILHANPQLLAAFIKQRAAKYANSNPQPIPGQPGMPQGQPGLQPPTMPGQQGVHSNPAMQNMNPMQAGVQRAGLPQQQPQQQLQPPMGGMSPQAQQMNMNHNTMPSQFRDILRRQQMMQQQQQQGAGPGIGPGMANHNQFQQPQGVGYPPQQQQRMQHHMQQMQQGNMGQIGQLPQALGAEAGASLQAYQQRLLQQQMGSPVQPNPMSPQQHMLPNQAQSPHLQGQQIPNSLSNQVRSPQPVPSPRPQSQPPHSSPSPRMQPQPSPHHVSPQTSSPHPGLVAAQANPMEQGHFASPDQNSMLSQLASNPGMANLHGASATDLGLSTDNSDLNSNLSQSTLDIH
# assay_procedure: P300 degradation, HiBit technology in A549 P300 HiBit cells (2 h)
# Assay type: cell-based
# condition_set: A549 P300 HiBit cells, 2 hrs post treatment
recorded_metric: DC50

Check out these entries, answers already filled in.
CN1CCN(c2ccc3c(c2)n(C)c(=O)n3C)c2cnc(-c3ccc(C(=O)NCC#Cc4ccc5occ(C6CCC(=O)NC6=O)c5c4)nc3)cc21 (stereo not drawn) | < 1 nM
Cn1c(=O)n(C)c2c(N3CCOCC3)nc(-c3cccc4cc(-c5ccc(C(=O)NCC#Cc6cc7c(C8CCC(=O)NC8=O)nccc7o6)nc5)ncc34)cc21 (stereo not drawn) | < 1 nM

Note: attention shifts to another entry.
Query: Which DC50 reading was recorded for the compound Cc1cc(-c2cc3cccc(-c4cc(C(C)C)c5c(c4)n(C)c(=O)n5C)c3cn2)cnc1C(=O)NCC#Cc1cccc(NC23CC(C2)C(=O)NC3=O)c1 ?
Response: 10 to 99 nM

###

Reported Dmax is given for each of the following molecules.
# target_under_test: p300 (Homo sapiens)
# Construct: host or cells: A549 P300 HiBit cells
# assay_procedure: P300 degradation, HiBit technology in A549 P300 HiBit cells (2 h)
# Assay type: cell-based
# condition_set: A549, A549 P300 HiBit cells, 2 hrs post treatment
# Protocol: p300 and CBP degradation potency and Dmax were determined using in cell western (ICW) assay technology in H1299 cells or HiBit technology in A549 HiBit cells. A549 P300 HiBit and A549 CBP HiBit cells were plated in separate 384-well, TC treated, white-opaque, flat-bottomed microplate. […] After incubation, luminescent signal of each plate was measured using the Envision instrument (Perkin Elmer).

Check out these entries, answers already filled in.
Cn1c(=O)n(C)c2c(N3CC(O)C3)nc(-c3cccc4cc(-c5ccc(C(=O)NCC#Cc6ccc7occ(C8CCC(=O)NC8=O)c7c6)nc5)ncc34)cc21 (centres unmarked) | > 80%
CCc1cc(-c2cccc3cc(-c4ccc(C(=O)NCC#Cc5ccc6c(c5)n(C5CCC(=O)NC5=O)c(=O)n6C)nc4)ncc23)c2cc(C)c(=O)n(C)c2c1 (centres unmarked) | > 80%
COc1cc(-c2cc3cccc(-c4ccc5c(c4)n(C)c(=O)n5C)c3cn2)cnc1C(=O)NCC#Cc1ccc2occ(C3CCC(=O)NC3=O)c2c1 (centres unmarked) | > 80%
Cn1c(=O)n(C)c2ncc(-c3cccc4cc(-c5ccc(C(=O)NCC#Cc6cc7c(C8CCC(=O)NC8=O)cccc7o6)nc5)ncc34)cc21 (centres unmarked) | > 80%
CCc1cc(-c2cccc3cc(-c4ccc(C(=O)NCC#Cc5cc(NC6CCC(=O)NC6=O)nn5C)nc4)ncc23)c2cc(C)c(=O)n(C)c2c1 (centres unmarked) | 20 to 39%
Cc1cc(-c2cnc(N(C)c3cc(C(C)C)c4c(c3)n(C)c(=O)n4C)cn2)cnc1C(=O)NCC#Cc1cccc(NC2CCC(=O)NC2=O)c1 (centres unmarked) | > 80%
Cc1cc2c(N3CCCc4nc(-c5ccc(C(=O)NCC#Cc6cc7c(C8CCC(=O)NC8=O)cccc7o6)nc5)ncc43)nc(N3CC(C)(O)C3)cc2n(C)c1=O (centres unmarked) | > 80%
CC(C)c1cc(-c2cccc3cc(-c4ccc(C(=O)NCC#Cc5cc6c(C7CCC(=O)NC7=O)cn(C)c6cn5)nc4)ncc23)cc2c1n(C)c(=O)n2C (centres unmarked) | 40 to 59%

Query: Give Dmax (p300 (Homo sapiens)) of the following molecule: Cc1cc(N2CCN(C)c3nc(-c4ccc(C(=O)NCC#Cc5cc6c(C7CCC(=O)NC7=O)cccc6o5)nc4)ncc32)c2cc(C)c(=O)n(C)c2c1 (centres unmarked)
Response: > 80%

Query: Here is the next molecule: Cc1cc2c(N3CCCc4cc(-c5ccc(C(=O)NCC#Cc6ccc7occ(C8CCC(=O)NC8=O)c7c6)nc5)c(F)cc43)cccc2n(C)c1=O (centres unmarked)
Response: > 80%

Query: Here is the next molecule: CC(C)c1cc(N2CCCc3cc(-c4ccc(C(=O)NCC#Cc5ccc6occ(C7CCC(=O)NC7=O)c6c5)nc4)c(C(F)F)cc32)cc2c1n(C)c(=O)n2C (centres unmarked)
Response: > 80%

Query: Here is the next molecule: Cc1cc2c(N3CCCc4nc(-c5ccc(C(=O)NCC#Cc6ccc7occ(C8CCC(=O)NC8=O)c7c6)nc5)ncc43)nc(N3CCC3)cc2n(C)c1=O (centres unmarked)
Response: > 80%

Query: Here is the next molecule: Cc1cc2c(N3CCN(C)c4cc(-c5ccc(C(=O)NCC#Cc6cc7c(C8CCC(=O)NC8=O)cccc7o6)nc5)ncc43)cc(C(C)C)cc2n(C)c1=O (centres unmarked)
Response: > 80%

Query: Here is the next molecule: Cn1c(=O)n(C)c2c(N3CC4CCC(C3)O4)nc(-c3cccc4cc(-c5ccc(C(=O)NCC#Cc6cc7c(C8CCC(=O)NC8=O)cccc7o6)nc5)ncc34)cc21 (centres unmarked)
Response: > 80%

Query: Here is the next molecule: Cc1cc(N2CCOc3nc(-c4ccc(C(=O)NCC#Cc5ccc6occ(C7CCC(=O)NC7=O)c6c5)nc4)ncc32)cc2c1n(C)c(=O)n2C (centres unmarked)
Response: > 80%

Query: Here is the next molecule: Cc1cc(N2CCCc3nc(-c4ccc(C(=O)NCC#Cc5cc6c(C7CCC(=O)NC7=O)cccc6o5)nc4)ncc32)c2cc(C)c(=O)n(C)c2n1 (centres unmarked)
Response: > 80%

Query: Here is the next molecule: Cc1cc(-c2ncc(N(C)c3cc(C4CCOCC4)c4oc(=O)n(C)c4c3)cn2)cnc1C(=O)NCC#Cc1ccc2occ(C3CCC(=O)NC3=O)c2c1 (centres unmarked)
Response: < 20%

###

# target_under_test: p300 (Homo sapiens)
# Construct: host or cells: A549 P300 HiBit cells
# assay_procedure: P300 degradation, HiBit technology in A549 P300 HiBit cells (2 h)
# Assay type: cell-based
# condition_set: A549, A549 P300 HiBit cells, 2 hrs post treatment
Reported Dmax is given for each of the following molecules.

Check out these entries, answers already filled in.
Cc1cc(-c2cc3cccc(-c4cc(C(C)C)c5c(c4)n(C)c(=O)n5C)c3cn2)cnc1C(=O)NCC#Cc1ccc2c(c1)c(C1CCC(=O)NC1=O)nn2C (centres unmarked) | > 80%
Cc1cc(-c2ncc3c(n2)OCCN3c2cnc3c(c2)n(C)c(=O)n3C)cnc1C(=O)NCC#Cc1ccc2occ(C3CCC(=O)NC3=O)c2c1 (centres unmarked) | 20 to 39%
CN1Cc2c(-c3cccc4cc(-c5ccc(C(=O)NCC#Cc6ccc7cnn(C8CCC(=O)NC8=O)c7c6)nc5)ncc34)cc(C(C)(F)F)cc2N(C)C1=O (centres unmarked) | > 80%

Query: Which Dmax reading was recorded for the molecule COc1cc(N2CCOc3cc(-c4ccc(C(=O)NCC#Cc5ccc6occ(C7CCC(=O)NC7=O)c6c5)nc4)ncc32)c2cc(C)c(=O)n(C)c2c1 (centres unmarked) ?
Response: > 80%

Query: Here is the next molecule: CC(C)c1cc(-c2cccc3cc(-c4ccc(C(=O)NCC#Cc5ccc6ncn(C7CCC(=O)NC7=O)c6c5)nc4)ncc23)cc2c1n(C)c(=O)n2C (centres unmarked)
Response: > 80%

###

# target_under_test: CBP (Homo sapiens)
# Construct: host or cells: A549 CBP HiBit cells
# Sequence (Q92793 whole entry): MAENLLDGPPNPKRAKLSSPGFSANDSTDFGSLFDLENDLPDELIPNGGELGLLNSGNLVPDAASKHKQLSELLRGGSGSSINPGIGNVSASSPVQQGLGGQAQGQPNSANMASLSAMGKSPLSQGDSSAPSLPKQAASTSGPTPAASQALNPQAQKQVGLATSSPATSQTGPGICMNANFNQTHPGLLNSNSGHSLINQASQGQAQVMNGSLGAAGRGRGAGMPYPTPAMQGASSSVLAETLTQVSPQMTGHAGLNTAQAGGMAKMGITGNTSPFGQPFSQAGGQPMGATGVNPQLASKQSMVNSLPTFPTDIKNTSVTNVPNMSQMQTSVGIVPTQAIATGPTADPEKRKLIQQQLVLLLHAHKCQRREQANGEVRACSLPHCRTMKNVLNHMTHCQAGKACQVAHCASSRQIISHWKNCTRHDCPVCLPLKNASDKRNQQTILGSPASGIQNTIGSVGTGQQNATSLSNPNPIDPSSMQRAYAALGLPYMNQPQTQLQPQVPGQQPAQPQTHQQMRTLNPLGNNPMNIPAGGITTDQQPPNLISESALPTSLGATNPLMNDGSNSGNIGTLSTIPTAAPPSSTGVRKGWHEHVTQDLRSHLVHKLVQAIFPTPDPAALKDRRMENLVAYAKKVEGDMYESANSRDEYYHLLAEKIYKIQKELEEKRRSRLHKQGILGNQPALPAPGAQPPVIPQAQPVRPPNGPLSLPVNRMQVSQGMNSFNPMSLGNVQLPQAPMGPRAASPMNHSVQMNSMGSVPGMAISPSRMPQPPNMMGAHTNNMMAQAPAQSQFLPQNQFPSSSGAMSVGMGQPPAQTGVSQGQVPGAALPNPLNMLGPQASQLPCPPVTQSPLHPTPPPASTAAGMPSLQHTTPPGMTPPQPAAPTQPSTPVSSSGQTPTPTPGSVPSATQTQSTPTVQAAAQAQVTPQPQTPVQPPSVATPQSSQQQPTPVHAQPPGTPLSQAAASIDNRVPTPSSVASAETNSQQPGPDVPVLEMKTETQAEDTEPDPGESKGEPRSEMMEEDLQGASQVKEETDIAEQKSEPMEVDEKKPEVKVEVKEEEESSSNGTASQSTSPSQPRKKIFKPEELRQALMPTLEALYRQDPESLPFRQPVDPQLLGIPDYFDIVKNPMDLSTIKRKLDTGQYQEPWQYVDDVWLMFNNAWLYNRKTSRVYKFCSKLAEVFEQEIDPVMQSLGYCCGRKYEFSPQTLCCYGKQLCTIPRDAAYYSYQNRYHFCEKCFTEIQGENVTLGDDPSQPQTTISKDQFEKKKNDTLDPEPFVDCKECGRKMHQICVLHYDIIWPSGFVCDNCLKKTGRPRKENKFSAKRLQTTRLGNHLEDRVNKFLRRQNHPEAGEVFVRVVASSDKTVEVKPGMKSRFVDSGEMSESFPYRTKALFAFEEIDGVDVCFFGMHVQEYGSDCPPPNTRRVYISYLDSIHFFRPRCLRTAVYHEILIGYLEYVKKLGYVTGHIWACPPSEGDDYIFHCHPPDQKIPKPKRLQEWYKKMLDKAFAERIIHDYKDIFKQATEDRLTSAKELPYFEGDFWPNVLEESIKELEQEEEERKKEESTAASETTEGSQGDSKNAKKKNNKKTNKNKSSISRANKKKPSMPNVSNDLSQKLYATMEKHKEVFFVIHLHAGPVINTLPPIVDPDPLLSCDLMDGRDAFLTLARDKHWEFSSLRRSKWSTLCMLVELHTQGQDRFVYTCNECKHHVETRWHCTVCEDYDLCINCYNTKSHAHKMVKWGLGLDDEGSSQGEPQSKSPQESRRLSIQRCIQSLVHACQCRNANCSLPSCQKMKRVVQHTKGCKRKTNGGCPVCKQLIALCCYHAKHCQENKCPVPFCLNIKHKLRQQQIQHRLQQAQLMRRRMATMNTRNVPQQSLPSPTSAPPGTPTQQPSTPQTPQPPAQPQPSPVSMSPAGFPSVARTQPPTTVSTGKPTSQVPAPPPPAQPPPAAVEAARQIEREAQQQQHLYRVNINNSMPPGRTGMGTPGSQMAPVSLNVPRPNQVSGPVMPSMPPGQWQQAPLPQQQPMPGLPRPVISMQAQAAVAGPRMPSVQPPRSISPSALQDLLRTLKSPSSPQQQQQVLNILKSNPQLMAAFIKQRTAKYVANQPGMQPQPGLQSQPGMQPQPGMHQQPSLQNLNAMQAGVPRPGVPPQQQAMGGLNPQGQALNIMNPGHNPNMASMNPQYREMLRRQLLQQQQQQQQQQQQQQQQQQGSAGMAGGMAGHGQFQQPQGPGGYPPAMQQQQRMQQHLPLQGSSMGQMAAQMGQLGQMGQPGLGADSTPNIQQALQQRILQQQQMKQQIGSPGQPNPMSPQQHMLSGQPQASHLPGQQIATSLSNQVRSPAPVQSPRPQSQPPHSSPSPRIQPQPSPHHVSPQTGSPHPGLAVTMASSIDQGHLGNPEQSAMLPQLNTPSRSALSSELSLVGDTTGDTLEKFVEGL
# assay_procedure: CBP degradation, HiBit technology in A549 CBP HiBit cells (24 h)
# Assay type: cell-based
# condition_set: 24 hrs post treatment
recorded_metric: DC50

Check out these entries, answers already filled in.
CC(C)c1cc(-c2cccc3cc(-c4ccc(C(=O)NCC#Cc5ccc6occ(C7CCC(=O)NC7=O)c6c5)nc4)ncc23)cc2c1n(C)c(=O)n2C (stereo not drawn) [Example A23] | > 1 µM
Cc1cc(-c2ccc3c(c2)n(C)c(=O)n3C)c2cnc(-c3ccc(C(=O)NCC#Cc4ccc5occ(C6CCC(=O)NC6=O)c5c4)nc3)cc2c1 (stereo not drawn) [Example A84] | > 1 µM
Cc1cc(-c2cccc3cc(-c4ccc(C(=O)NCC#Cc5ccc6occ(C7CCC(=O)NC7=O)c6c5)nc4)ncc23)cc2c1n(C)c(=O)n2C (stereo not drawn) [Example A96] | > 1 µM
Cc1cc(-c2ncc3c(n2)CCCN3c2cc(C3CCOCC3)cc3c2cc(C)c(=O)n3C)cnc1C(=O)NCC#Cc1cc2c(C3CCC(=O)NC3=O)cccc2s1 (stereo not drawn) [Example B165] | 0.01 to 0.099 µM
CC(C)c1cc(N2CCOc3nc(-c4ccc(C(=O)NCC#Cc5ccc6occ(C7CCC(=O)NC7=O)c6c5)nc4)ncc32)cc2c1n(C)c(=O)n2C (stereo not drawn) [Example A89] | > 1 µM

Query: Which DC50 reading was recorded for the molecule CN1Cc2c(-c3cccc4cc(-c5ccc(C(=O)NCC#Cc6ccc7cnn(C8CCC(=O)NC8=O)c7c6)nc5)ncc34)cc(C(C)(F)F)cc2N(C)C1=O (stereo not drawn) [Example B9] ?
Response: 0.01 to 0.099 µM

Query: Here is the next molecule: Cn1c(=O)n(C)c2cc(-c3cccc4cc(-c5ccc(C(=O)NCC#Cc6cc7c(C8CCC(=O)NC8=O)nccc7o6)nc5)ncc34)ccc21 (stereo not drawn) [Example A213]
Response: > 1 µM

Query: Here is the next molecule: Cc1cc2c(N3CCCc4nc(-c5ccc(C(=O)NCC#Cc6oc7cccc(C8CCC(=O)NC8=O)c7c6F)nc5)ncc43)cc(C3CCOCC3)cc2n(C)c1=O (stereo not drawn) [Example B60]
Response: > 1 µM

Query: Here is the next molecule: Cc1cc(-c2ncc(N(C)c3cc(C4CCOCC4)c4c(c3)n(C)c(=O)n4C)cn2)cnc1C(=O)NCC#Cc1ccc2occ([C@@H]3CCC(=O)NC3=O)c2c1 [Example A55]
Response: > 1 µM
